- Subject of test: CFTR G551D mutant (Homo sapiens, UniProt P13569, G551D)
- Construct: expressed in transfected cells; host or cells: HEK293 cells, reverse transfection with plasmids
- Sequence (P13569 whole entry G551D): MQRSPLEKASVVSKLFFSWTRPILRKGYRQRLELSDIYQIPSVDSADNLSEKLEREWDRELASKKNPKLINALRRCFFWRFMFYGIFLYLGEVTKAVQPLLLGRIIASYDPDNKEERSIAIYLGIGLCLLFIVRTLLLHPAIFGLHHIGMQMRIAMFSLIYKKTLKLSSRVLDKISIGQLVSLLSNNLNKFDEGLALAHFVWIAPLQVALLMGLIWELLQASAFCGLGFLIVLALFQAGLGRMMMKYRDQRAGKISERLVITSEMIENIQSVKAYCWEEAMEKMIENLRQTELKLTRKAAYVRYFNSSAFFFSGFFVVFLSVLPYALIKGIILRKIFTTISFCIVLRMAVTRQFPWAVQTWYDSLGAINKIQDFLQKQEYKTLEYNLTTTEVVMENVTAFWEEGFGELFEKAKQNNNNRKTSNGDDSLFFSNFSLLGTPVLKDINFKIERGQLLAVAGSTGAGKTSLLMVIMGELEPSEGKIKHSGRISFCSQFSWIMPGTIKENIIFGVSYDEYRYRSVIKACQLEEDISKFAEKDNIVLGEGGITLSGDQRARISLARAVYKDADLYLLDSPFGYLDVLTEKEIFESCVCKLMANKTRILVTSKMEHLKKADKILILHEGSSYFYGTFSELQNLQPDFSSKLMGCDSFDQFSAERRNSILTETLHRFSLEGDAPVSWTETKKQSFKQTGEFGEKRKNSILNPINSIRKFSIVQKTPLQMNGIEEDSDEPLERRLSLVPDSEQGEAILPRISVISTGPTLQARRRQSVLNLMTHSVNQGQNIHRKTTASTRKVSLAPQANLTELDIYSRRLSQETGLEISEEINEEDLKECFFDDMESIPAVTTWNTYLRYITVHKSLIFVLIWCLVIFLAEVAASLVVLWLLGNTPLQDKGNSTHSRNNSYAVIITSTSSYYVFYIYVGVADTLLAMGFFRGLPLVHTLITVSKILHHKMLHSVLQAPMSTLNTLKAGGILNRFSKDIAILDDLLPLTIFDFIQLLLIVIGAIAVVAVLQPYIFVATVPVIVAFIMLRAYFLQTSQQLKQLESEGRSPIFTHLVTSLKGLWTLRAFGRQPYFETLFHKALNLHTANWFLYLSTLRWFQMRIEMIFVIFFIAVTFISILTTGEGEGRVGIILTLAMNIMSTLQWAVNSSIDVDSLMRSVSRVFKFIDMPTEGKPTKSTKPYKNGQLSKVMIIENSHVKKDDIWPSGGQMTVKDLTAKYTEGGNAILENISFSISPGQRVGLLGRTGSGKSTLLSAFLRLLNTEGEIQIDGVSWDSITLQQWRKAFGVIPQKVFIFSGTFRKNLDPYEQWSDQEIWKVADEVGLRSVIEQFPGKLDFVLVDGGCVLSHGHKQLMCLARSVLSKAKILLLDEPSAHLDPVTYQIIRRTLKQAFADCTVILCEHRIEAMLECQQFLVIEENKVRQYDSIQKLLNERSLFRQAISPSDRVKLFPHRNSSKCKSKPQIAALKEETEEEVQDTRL
- Method summary: YFP-halide influx assay for the CFTR-G551D mutation (HEK293 cells)
- Assay type: cell-based
- Experimental conditions: forskolin 10.67 μM
Outcome measure: % Activation (%)

Would you please look over these solved cases?
Molecule | % Activation / %
C[C@H](O)CNC(=O)c1ncc(S(=O)(=O)N(C)Cc2ccc(F)cc2)cc1N [Compound 269] | 44.8
Nc1cc(S(=O)(=O)c2ccc(OC(F)(F)F)cc2)cnc1C(=O)NCC(O)C1CCOCC1 (stereo not shown) [Compound 35] | 78.7
CC(O)(CNC(=O)c1ncc(S(=O)(=O)c2ccc(OC(F)(F)F)cc2)cc1N)C(F)(F)F (stereo not shown) [Compound 2] | 62.5
CC(C)(O)CCNC(=O)c1ncc(S(=O)(=O)c2ccc(OC(F)(F)F)cc2)cc1N [Compound 51] | 51.2
C[C@H](O)CNC(=O)c1nc(C2CC2)c(S(=O)(=O)c2ccc(OC(F)(F)F)cc2)cc1N [Compound 290] | 73.2

A: CN1CC[C@H](NC(=O)c2ncc(S(=O)(=O)c3ccc(OC(F)(F)F)cc3)cc2N)C1 [Compound 207]
B: CC1CCN(S(=O)(=O)c2cnc(C(=O)NCC(O)C(F)(F)F)c(N)c2)CC1 (stereo not shown) [Compound 184]
Please indicate which entry, A or B , has the lower recorded % Activation value. # respond with the chosen item's label
A

1: Nc1cc(S(=O)(=O)c2ccc(OC(F)(F)F)cc2)cnc1C(=O)NC1CC(F)(F)C1 [Compound 122]
2: C[C@H](O)CNC(=O)c1ncc(S(=O)(=O)NCc2ccc(F)cc2)cc1N [Compound 267]
3: CN1CCC(O)(CNC(=O)c2ncc(S(=O)(=O)c3ccc(C(F)(F)F)cc3)cc2N)CC1 [Compound 230]
Let's sort these by % Activation, smallest first. Go ahead? List labels; respect the requested ordering.
2, 3, 1

P: N#CC1CN(C(=O)c2ncc(S(=O)(=O)c3ccc(OC(F)(F)F)cc3)cc2N)C1 [Compound 61]
Q: Nc1cc(S(=O)(=O)c2ccc(OC(F)(F)F)cc2)cnc1C(=O)NCC1CC(F)(F)C1 [Compound 153]
Parameter check: reported % Activation is higher for which label, P or Q ? Reply with the label of the item you choose.
P
(P: 70.0%, Q: 47.6%)

a: Nc1cc(S(=O)(=O)c2ccc(OC(F)(F)F)cc2)cnc1C(=O)NCCN1CCOCC1 [Compound 9]
b: Nc1cc(S(=O)(=O)c2ccc(OC(F)(F)F)cc2)cnc1C(=O)N[C@@H]1CCCOC1 [Compound 140]
Among a and b , whose measured % Activation is the smaller figure? API: response body contains the label of the selected item.
b

P: C[C@@H]1CCCN1S(=O)(=O)c1cnc(C(=O)NCC(O)C(F)(F)F)c(N)c1 (stereo partly shown) [Compound 179]
Q: Nc1cc(S(=O)(=O)CC2CCCO2)cnc1C(=O)NCC(O)C(F)(F)F (stereo not shown) [Compound 238]
Could you tell me which of P and Q has the lower % Activation reading? Pick one; state its label.
Q
(Q: 4.8%, P: 52.6%)

---

- Subject of test: CFTR ΔF508 mutant (Homo sapiens, UniProt P13569, DEL508-508)
- Construct: expressed in transfected cells; host or cells: CFBE41o- cells, adenoviral transduction
- Method summary: YFP-halide influx assay for the CFTR-ΔF508 mutation (CFBE41o- cells)
- Type: cell-based
- Experimental conditions: forskolin 10.67 μM
Outcome measure: % Activation (%)

Compound | Subject of test | Unit annotation | % Activation
Nc1cc(S(=O)(=O)c2ccc(C(F)(F)F)cc2)cnc1C(=O)NC[C@@H](O)C(F)(F)F | CFTR ΔF508 mutant (Homo sapiens, UniProt P13569, DEL508-508) | % | 102.0
Nc1cc(S(=O)(=O)c2ccc(C(F)(F)F)cc2)cnc1C(=O)NCC1CC1 | CFTR ΔF508 mutant (Homo sapiens, UniProt P13569, DEL508-508) | % | 96.4
CC(C)(O)CNC(=O)c1ncc(S(=O)(=O)c2ccc(F)cc2)cc1N | CFTR ΔF508 mutant (Homo sapiens, UniProt P13569, DEL508-508) | % | 106.4
CC(CO)CNC(=O)c1ncc(S(=O)(=O)c2ccc(OC(F)(F)F)cc2)cc1N (stereo not shown) | CFTR ΔF508 mutant (Homo sapiens, UniProt P13569, DEL508-508) | % | 106.6

---

- Subject of test: CFTR ΔF508 mutant (Homo sapiens, UniProt P13569, DEL508-508)
- Construct: expressed in transfected cells; host or cells: CFBE41o- cells, adenoviral transduction
- Method summary: YFP-halide influx assay for the CFTR-ΔF508 mutation (CFBE41o- cells)
- Assay type: cell-based
- Experimental conditions: forskolin 10.67 μM
Outcome measure: % Activation (%)

Molecule | Outcome measure | Unit annotation | Assay value
CC(C)OCC(O)CNC(=O)c1ncc(S(=O)(=O)c2ccc(OC(F)(F)F)cc2)cc1N (centres unmarked) | % Activation | % | 101.0
Nc1cc(S(=O)(=O)c2ccc(OC(F)(F)F)cc2)cnc1C(=O)NC[C@@H](O)COCC1CC1 | % Activation | % | 110.0
Nc1cc(S(=O)(=O)NC[C@H]2CCOC2)cnc1C(=O)NCC(O)C(F)(F)F (some centres unmarked) | % Activation | % | 116.7
Nc1cc(S(=O)(=O)c2ccc(OC(F)(F)F)cc2)cnc1C(=O)NCC(O)C(F)F (centres unmarked) | % Activation | % | 113.0
Nc1cc(S(=O)(=O)c2ccc(F)cc2)cnc1C(=O)NCCC(O)C(F)(F)F (centres unmarked) | % Activation | % | 89.3
CC(C)NC(=O)CNC(=O)c1ncc(S(=O)(=O)c2ccc(OC(F)(F)F)cc2)cc1N | % Activation | % | 93.1
Nc1cc(S(=O)(=O)c2ccc(F)cc2)cnc1C(=O)NC[C@@H](O)C(F)(F)F | % Activation | % | 111.0
COC1CCN(S(=O)(=O)c2cnc(C(=O)NCC(O)C(F)(F)F)c(N)c2)CC1 (centres unmarked) | % Activation | % | 105.4

---

- Subject of test: CFTR G551D mutant (Homo sapiens, UniProt P13569, G551D)
- Method summary: YFP-halide influx assay for the CFTR-G551D mutation (HEK293 cells)
- Experimental conditions: forskolin 10.67 μM
Outcome measure: EC50 (nM)

a: Nc1cc(S(=O)(=O)c2ccc(F)cc2)cnc1C(=O)N1CC(O)(C(F)(F)F)C1
b: Nc1cc(S(=O)(=O)c2ccc(C(F)(F)F)cc2)cnc1C(=O)NC[C@@H](O)C(F)(F)F
Please tell me which of the two, a or b , has the higher reported EC50 value. Could you answer with the label of the item you picked?
b
(b: 262 nM, a: 69.4 nM)

---

- Subject of test: CFTR-R117H (Homo sapiens, UniProt P13569, R117H)
- Construct: expressed in transfected cells
- Sequence (P13569 whole entry R117H): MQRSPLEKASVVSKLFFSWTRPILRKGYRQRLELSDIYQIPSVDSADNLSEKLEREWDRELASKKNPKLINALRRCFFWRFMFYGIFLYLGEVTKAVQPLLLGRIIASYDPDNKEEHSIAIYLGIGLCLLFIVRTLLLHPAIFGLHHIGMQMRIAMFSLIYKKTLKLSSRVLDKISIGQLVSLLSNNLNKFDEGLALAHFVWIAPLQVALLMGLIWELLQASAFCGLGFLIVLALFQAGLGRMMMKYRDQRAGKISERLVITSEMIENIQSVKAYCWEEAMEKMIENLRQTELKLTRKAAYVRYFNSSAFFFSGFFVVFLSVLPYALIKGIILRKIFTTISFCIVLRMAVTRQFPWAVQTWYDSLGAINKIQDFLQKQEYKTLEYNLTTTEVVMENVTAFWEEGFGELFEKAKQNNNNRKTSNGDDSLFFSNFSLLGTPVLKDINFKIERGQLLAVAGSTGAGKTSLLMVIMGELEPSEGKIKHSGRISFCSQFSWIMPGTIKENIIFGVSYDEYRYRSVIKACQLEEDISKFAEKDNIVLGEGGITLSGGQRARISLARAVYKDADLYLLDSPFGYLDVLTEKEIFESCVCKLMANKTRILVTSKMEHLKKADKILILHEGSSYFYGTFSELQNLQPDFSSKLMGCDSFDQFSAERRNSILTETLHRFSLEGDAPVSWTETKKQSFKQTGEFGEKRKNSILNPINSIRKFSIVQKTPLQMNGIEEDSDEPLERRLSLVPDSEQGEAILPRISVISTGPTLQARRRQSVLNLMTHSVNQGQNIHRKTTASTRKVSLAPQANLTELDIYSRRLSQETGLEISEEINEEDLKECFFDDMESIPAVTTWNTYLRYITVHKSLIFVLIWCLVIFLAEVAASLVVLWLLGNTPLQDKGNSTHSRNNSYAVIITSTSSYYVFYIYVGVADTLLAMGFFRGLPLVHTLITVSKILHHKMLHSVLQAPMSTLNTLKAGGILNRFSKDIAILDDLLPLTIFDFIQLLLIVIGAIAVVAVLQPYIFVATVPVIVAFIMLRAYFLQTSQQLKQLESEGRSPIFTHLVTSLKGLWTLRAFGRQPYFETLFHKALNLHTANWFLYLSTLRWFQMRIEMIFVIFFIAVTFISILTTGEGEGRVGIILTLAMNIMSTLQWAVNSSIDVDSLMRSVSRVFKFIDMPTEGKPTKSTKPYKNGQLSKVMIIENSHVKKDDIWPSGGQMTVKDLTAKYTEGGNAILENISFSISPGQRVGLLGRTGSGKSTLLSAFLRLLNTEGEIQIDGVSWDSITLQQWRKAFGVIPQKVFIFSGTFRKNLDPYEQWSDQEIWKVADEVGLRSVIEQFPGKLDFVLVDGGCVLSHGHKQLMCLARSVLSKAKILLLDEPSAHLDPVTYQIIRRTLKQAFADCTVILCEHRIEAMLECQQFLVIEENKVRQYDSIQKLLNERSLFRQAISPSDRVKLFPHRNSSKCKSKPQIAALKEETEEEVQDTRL
- Method summary: YFP-halide influx assay for the CFTR-R117H
- Assay type: cell-based
Outcome measure: EC50 (nM)

Solved entries (count: 2):
Compound | Outcome measure | Assay value
Nc1cc(S(=O)(=O)c2ccc(OC(F)(F)F)cc2)cnc1C(=O)N1CC(O)(C(F)(F)F)C1 | EC50 | 22.2
Nc1cc(S(=O)(=O)c2ccc(OC(F)(F)F)cc2)cnc1C(=O)NCCO | EC50 | 943

1: Nc1cc(S(=O)(=O)c2ccc(OC(F)(F)F)cc2)cnc1C(=O)N1CC(F)(F)C1
2: Nc1cc(S(=O)(=O)N2CCC(C(F)(F)F)CC2)cnc1C(=O)NCC(O)C(F)(F)F (stereo not shown)
Please indicate which item has the smaller measured EC50: 1 versus 2 API: response body contains the label of the selected item.
2
(2: 138 nM, 1: 291 nM)

---

- Subject of test: CFTR G551D/ΔF508 (Homo sapiens, UniProt P13569, G551D)
- Sequence (P13569 whole entry F508del/G551D): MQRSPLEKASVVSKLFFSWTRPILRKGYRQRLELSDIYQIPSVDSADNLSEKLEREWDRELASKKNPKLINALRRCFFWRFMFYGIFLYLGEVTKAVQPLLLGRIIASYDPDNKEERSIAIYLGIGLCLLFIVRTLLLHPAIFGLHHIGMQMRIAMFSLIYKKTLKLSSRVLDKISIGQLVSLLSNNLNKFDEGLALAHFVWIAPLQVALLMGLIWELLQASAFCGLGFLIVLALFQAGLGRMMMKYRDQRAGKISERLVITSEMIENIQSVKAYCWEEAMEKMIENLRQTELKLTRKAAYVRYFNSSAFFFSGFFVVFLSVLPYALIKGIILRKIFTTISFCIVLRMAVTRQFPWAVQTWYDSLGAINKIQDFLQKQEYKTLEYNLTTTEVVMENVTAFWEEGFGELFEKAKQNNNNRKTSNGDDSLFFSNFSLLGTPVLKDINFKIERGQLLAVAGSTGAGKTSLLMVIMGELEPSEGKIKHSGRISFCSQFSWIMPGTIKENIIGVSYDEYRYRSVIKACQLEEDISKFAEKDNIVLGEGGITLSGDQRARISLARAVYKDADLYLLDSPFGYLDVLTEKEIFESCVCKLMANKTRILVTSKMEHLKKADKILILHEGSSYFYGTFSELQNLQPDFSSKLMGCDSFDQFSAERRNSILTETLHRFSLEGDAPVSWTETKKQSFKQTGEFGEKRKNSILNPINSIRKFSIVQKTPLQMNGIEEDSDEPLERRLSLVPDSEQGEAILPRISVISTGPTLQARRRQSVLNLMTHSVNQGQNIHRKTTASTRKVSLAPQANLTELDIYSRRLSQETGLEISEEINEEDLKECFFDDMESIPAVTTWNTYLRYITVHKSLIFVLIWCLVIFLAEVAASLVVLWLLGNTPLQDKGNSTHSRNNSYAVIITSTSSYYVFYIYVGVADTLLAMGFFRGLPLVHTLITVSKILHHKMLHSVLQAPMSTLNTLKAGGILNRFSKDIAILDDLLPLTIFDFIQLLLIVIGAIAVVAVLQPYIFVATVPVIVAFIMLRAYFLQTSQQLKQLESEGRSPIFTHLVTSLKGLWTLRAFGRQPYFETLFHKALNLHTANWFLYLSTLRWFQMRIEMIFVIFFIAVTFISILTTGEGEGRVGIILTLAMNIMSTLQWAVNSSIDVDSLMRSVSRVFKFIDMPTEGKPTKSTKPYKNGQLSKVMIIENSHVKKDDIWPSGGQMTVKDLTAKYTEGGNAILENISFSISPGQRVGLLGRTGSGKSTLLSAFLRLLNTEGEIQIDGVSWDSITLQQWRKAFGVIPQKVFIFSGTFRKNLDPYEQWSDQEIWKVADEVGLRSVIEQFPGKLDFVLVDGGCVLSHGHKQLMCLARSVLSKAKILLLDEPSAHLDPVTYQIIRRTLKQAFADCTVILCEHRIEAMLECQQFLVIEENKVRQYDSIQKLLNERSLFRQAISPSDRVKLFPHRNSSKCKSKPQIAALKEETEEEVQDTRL
- Method summary: TECC assay, primary bronchial epithelial cells, CFTR G551D/ΔF508
- Experimental conditions: primary bronchial epithelial cells heterozygous G551D/ΔF508, acute mode, increase in Isc after forskolin
Outcome measure: EC50 (nM)

Smiles code | Subject of test | Assay value
Nc1cc(S(=O)(=O)c2ccc(OC(F)(F)F)cc2)cnc1C(=O)N1CC(F)(F)C1 | CFTR G551D/ΔF508 (Homo sapiens, UniProt P13569, G551D) | 443
C[C@H](O)CNC(=O)c1ncc(S(=O)(=O)c2ccc(OC(F)(F)F)cc2)cc1N | CFTR G551D/ΔF508 (Homo sapiens, UniProt P13569, G551D) | 847

a: Nc1cc(S(=O)(=O)c2ccc(F)cc2)cnc1C(=O)NC[C@@H](O)C(F)(F)F
b: Nc1cc(S(=O)(=O)c2ccccc2OC(F)(F)F)cnc1C(=O)N1CC(O)(C(F)(F)F)C1
Compare reported EC50 values for a and b . Which is lower? In your reply, give the label of the chosen option.
b
(b: 9.5 nM, a: 1010 nM)
